The following compounds are listed with their measured pIC50 values.
assayedSystem: hRIPK1 (aa 1-375) fusion protein (Homo sapiens, UniProt Q13546)
Construct: hRIPK1 (aa 1-375) fusion protein
Sequence (Q13546 1-375): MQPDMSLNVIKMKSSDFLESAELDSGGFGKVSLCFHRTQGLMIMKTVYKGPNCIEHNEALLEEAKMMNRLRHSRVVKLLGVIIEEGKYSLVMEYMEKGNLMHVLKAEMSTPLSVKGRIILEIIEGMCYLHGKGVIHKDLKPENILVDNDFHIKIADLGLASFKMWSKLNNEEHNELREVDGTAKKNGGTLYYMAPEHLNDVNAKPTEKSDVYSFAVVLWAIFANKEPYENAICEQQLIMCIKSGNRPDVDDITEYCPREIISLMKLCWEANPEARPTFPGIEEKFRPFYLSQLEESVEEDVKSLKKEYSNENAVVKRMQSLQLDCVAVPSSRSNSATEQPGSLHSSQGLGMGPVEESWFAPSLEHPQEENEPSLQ
assayOverview: Receptor-Interacting Protein Kinase 1 inhibition, ADP Glo assay (conversion of ATP to ADP due to autophosphorylation)
recordedConditions: ATP 50 μM, 30 min preincubation, 240 min incubation, room temperature, DMSO 1%
pIC50 is a log-scale quantity: -log10 of the concentration expressed in molar.

Solved cases (4 shown):
N#Cc1cncc([C@@H]2CCON2C(=O)[C@H]2CC[C@H](COc3ccc(C(N)=O)cn3)CC2)c1 [Compound 99] :: 7.15
N#Cc1cc(F)cc(NC[C@H]2CC[C@H](C(=O)N3OCC[C@H]3c3cc(F)cc(C#N)c3)CC2)c1 [Compound 38] :: 7.57
N#Cc1cc(F)cc(N[C@H]2C[C@@H](C(=O)N3OCC[C@H]3c3ccc(F)c(F)c3)C2)c1 [Compound 27] :: 7.31
Cc1nc([C@@H]2CCON2C(=O)[C@H]2CC[C@H](COc3cccc(C(N)=O)c3)CC2)cs1 [Compound 130] :: 7.43

Now for a further compound.
(Q) Return reported pIC50; argument: N#Cc1cncc([C@@H]2CCON2C(=O)[C@H]2CC[C@H](COc3ccc(F)c(C(N)=O)c3)CC2)c1 [Compound 74]
(A) 7.62

----------
assayedSystem: hRIPK1 (aa 1-375) fusion protein (Homo sapiens)
Construct: hRIPK1 (aa 1-375) fusion protein
assayOverview: Receptor-Interacting Protein Kinase 1 inhibition, ADP Glo assay (conversion of ATP to ADP due to autophosphorylation)
recordedConditions: ATP 50 μM, 30 min preincubation, 240 min incubation, room temperature, DMSO 1%
Assign a class from recorded IC50; defined classes: bin A = under 30 nM, bin B = from 30 nM up to 50 nM, bin C = 50 nM and over

Solved entries:
NC(=O)c1ccnc(N[C@H]2CC[C@@H](C(=O)N3OCC[C@H]3c3ccc(Cl)cc3)CC2)n1 :: bin B
NC(=O)c1cccc(OC[C@H]2CC[C@H](C(=O)N3OCC[C@H]3c3ccccn3)CC2)c1 :: bin B
Cn1ccn(-c2ccc(OC[C@H]3CC[C@H](C(=O)N4OCC[C@H]4c4cc(F)cc(F)c4)CC3)c(F)c2)c1=O :: bin A
CCOC(=O)c1ncnc(N[C@H]2C[C@@](C)(C(=O)N3OCC[C@H]3c3cc(F)cc(F)c3)C2)c1F :: bin A
N#Cc1cc(F)cc([C@@H]2CCON2C(=O)[C@H]2C[C@@H](n3cnc4ccccc43)C2)c1 :: bin A

(Q) // bin(item) where item = "Cc1nnc(C)n1-c1ccc(F)c(OC[C@H]2CC[C@H](C(=O)N3OCC[C@H]3c3cc(F)cc(F)c3)CC2)c1"
(A) bin C

----------
assayedSystem: hRIPK1 (aa 1-375) fusion protein (Homo sapiens)
Construct: hRIPK1 (aa 1-375) fusion protein
assayOverview: Receptor-Interacting Protein Kinase 1 inhibition, ADP Glo assay (conversion of ATP to ADP due to autophosphorylation)
recordedConditions: ATP 50 μM, 30 min preincubation, 240 min incubation, room temperature, DMSO 1%
The following compounds are listed with their measured pIC50 values.
pIC50 is a log-scale quantity: -log10 of the concentration expressed in molar.

(Q) Return reported pIC50; argument: CN1CC(=O)N(c2ccc(Cl)c(OC[C@H]3CC[C@H](C(=O)N4OCC[C@H]4c4cc(F)cc(F)c4)CC3)c2)C1=O [Compound 63]
(A) 7.36

(Q) // next record N#Cc1cc(F)cc(N[C@H]2C[C@@H](C(=O)N3OCC[C@H]3c3ccc(Cl)cc3)C2)c1 [Compound 25]
(A) 7.19

(Q) // next record N#Cc1cc(F)cc(OC[C@H]2CC[C@H](C(=O)N3OCC[C@H]3c3cncc(C#N)c3)CC2)c1 [Compound 83]
(A) 7.47

(Q) // next record Cc1nnc(C)n1-c1ccc(OC[C@H]2CC[C@H](C(=O)N3OCC[C@H]3c3cc(F)cc(F)c3)CC2)c(F)c1 [Compound 67]
(A) 7.34

(Q) // next record N#Cc1cc(OC[C@H]2CC[C@@H](C(=O)N3OCC[C@H]3c3cc(F)cc(F)c3)CC2)ncn1 [Compound 55]
(A) 7.25

(Q) // next record N#Cc1cc(F)cc([C@@H]2CCON2C(=O)[C@H]2CC[C@H](COc3ccc(F)c(C#N)c3)CC2)c1 [Compound 44]
(A) 7.57

(Q) // next record N#Cc1cc(F)cc([C@@H]2CCON2C(=O)[C@H]2CC[C@H](COc3cc(C#N)ccn3)CC2)c1 [Compound 91]
(A) 7.85

(Q) // next record N#Cc1cc(F)cc([C@@H]2CCON2C(=O)C2CCC(COc3cc(C(N)=O)ncn3)C2)c1 (single isomer, unassigned) [Compound 115]
(A) 7.28

(Q) // next record N#Cc1cc(F)cc(N[C@H]2C[C@@H](C(=O)N3OCC[C@H]3c3cncc(F)c3)C2)c1 [Compound 36]
(A) 7.38

(Q) // next record N#Cc1cc(OC[C@H]2CC[C@@H](C(=O)N3OCC[C@H]3c3cc(F)cc(F)c3)CC2)ccc1F [Compound 52]
(A) 7.74

(Q) // next record NC(=O)c1ccc(OC[C@H]2CC[C@H](C(=O)N3OCC[C@H]3c3cnccn3)CC2)nc1 [Compound 102]
(A) 7.33

(Q) // next record Cn1ccn(-c2ccc(OC[C@H]3CC[C@H](C(=O)N4OCC[C@H]4c4cc(F)cc(C#N)c4)CC3)c(F)c2)c1=O [Compound 78]
(A) 7.37

(Q) // next record N#Cc1cc(OC[C@H]2CC[C@H](C(=O)N3OCC[C@H]3c3cc(F)cc(F)c3)CC2)ncn1 [Compound 45]
(A) 7.36

(Q) // next record N#Cc1cc(F)cc(OC[C@H]2CC[C@H](C(=O)N3OCC[C@H]3c3cc(F)cc(F)c3)CC2)c1 [Compound 48]
(A) 7.36
